Recorded pIC50 for the following compounds
system-tested: Ephrin type-A receptor 1 (Homo sapiens)
Sequence (P21709 whole entry, the tested form may be a part): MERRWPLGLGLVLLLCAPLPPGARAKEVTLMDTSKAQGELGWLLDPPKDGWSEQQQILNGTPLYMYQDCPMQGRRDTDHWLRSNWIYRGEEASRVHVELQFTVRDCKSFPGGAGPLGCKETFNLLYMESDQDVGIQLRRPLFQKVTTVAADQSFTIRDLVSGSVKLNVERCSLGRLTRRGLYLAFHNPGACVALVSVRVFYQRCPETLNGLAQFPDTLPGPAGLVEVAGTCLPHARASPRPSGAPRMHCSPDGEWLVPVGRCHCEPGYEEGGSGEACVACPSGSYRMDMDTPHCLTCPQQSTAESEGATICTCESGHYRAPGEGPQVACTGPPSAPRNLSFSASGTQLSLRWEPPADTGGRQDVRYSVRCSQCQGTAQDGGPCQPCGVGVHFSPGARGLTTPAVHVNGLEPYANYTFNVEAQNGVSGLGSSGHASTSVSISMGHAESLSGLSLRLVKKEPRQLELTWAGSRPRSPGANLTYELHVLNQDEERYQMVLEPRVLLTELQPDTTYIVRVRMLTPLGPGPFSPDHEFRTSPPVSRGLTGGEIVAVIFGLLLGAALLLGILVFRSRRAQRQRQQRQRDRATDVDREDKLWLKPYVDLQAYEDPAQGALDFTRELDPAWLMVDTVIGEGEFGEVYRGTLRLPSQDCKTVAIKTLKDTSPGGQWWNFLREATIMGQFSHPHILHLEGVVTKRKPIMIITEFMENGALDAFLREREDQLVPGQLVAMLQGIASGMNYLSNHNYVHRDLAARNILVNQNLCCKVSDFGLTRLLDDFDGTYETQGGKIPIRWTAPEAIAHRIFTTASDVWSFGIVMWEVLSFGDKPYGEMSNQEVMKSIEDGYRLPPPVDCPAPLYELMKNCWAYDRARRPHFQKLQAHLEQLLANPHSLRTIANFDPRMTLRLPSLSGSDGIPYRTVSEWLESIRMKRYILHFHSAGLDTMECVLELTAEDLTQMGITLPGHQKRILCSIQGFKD
test-method-notes: Inhibition of Nano Luc-fused full length C-terminal EPHA1 (unknown origin) expressed in HEK293T cells using NanoGlo as substrate incubated for 2 hrs in presence of tracer by NanoBRET assay
pIC50: −log10 of the molar value.
measured-metric: pIC50

[[record]]
smiles_text = "Cc1ccc(C(=O)Nc2cccc(C(F)(F)F)c2)cc1Nc1nc(-c2cccnc2)nc2c1cnn2C"
endpoint_value = 6.52

[[record]]
smiles_text = "Cc1ccc(C(=O)Nc2cccc(C(F)(F)F)c2)cc1Nc1nc(-c2cccnc2)nc2nn(C)cc12"
endpoint_value = 4.77

